Let's look at some compounds and their measured inhibition.
- assay_target: Serine/threonine-protein kinase pim-1 (Homo sapiens) (UniProt P11309)
- assay: Competitive binding affinity to PIM1 (unknown origin) at 10 uM in presence of ATP relative to control

{"columns": ["mol", "inhibition [%]"],
 "data": [
  ["O[C@H]1CC[C@H](Nc2nccc(-n3ccc4ccccc43)n2)CC1", 76],
  ["O[C@H]1CC[C@H](Nc2nccc(-n3nnc4ccccc43)n2)CC1", 87],
  ["O[C@H]1CC[C@H](Nc2nccc(-c3n[nH]c4ccccc34)n2)CC1", 99],
  ["O[C@H]1CC[C@H](Nc2nccc(-n3ncc4ccccc43)n2)CC1", 96]
]}

---

Let's look at some compounds and their measured inhibition.
- assay_target: Serine/threonine-protein kinase Nek7 (Homo sapiens, UniProt Q8TDX7)
- assay: Competitive binding affinity to NEK7 (unknown origin) at 10 uM in presence of ATP relative to control

{"columns": ["mol", "inhibition"],
 "data": [
  ["O[C@H]1CC[C@H](Nc2nccc(-n3ncc4ccccc43)n2)CC1", "< 50%"],
  ["O[C@H]1CC[C@H](Nc2nccc(-n3nnc4ccccc43)n2)CC1", "93%"],
  ["CS(=O)(=O)CCCOc1cccc2c1ccn2-c1ccnc(N[C@H]2CC[C@H](C(=O)N3CCC(O)CC3)CC2)n1", "> 85%"],
  ["O[C@H]1CC[C@H](Nc2nccc(-n3ccc4ccccc43)n2)CC1", "< 50%"]
]}

---

- assay_target: Mitogen-activated protein kinase 9 (Homo sapiens, UniProt P45984)
Binary call on IC50 with cut-off 200 nM: strictly below means 1, and equality or higher means -1.

{"columns": ["mol", "class_label"],
 "data": [
  ["O=C([C@H]1CC[C@H](Nc2nccc(-n3nnc4ccccc43)n2)CC1)N1CCCC1", -1],
  ["O[C@H]1CC[C@H](Nc2nccc(-n3ccc4ccccc43)n2)CC1", -1],
  ["CC(C)(O)[C@H]1CC[C@H](Nc2nccc(-n3ncc4c(OCCCS(C)(=O)=O)cccc43)n2)CC1", 1],
  ["CS(=O)(=O)CCCOc1cccc2c1ccn2-c1ccnc(N[C@H]2CC[C@H](C(=O)N3CCC(O)CC3)CC2)n1", 1],
  ["O[C@H]1CC[C@H](Nc2nccc(-c3c[nH]c4ccccc34)n2)CC1", -1],
  ["O=C([C@H]1CC[C@H](Nc2nccc(-n3nnc4ccccc43)n2)CC1)N1CCOCC1", 1],
  ["CC(C)(O)[C@H]1CC[C@H](Nc2nccc(-n3ccc4c(OCCCS(C)(=O)=O)cccc43)n2)CC1", 1],
  ["CN(C)S(=O)(=O)N[C@H]1CC[C@H](Nc2nccc(-n3nnc4ccccc43)n2)CC1", 1],
  ["CS(=O)(=O)N[C@H]1CC[C@H](Nc2nccc(-n3nnc4ccccc43)n2)CC1", 1]
]}

---

- assay_target: Casein kinase II subunit alpha' (Homo sapiens) (UniProt P19784)
- assay: Competitive binding affinity to CSNK2A2 (unknown origin) at 10 uM in presence of ATP relative to control
Let's look at some compounds and their measured inhibition.

{"columns": ["mol", "assay_target", "u", "comparison_operator", "inhibition"],
 "data": [
  ["O[C@H]1CC[C@H](Nc2nccc(-c3n[nH]c4ccccc34)n2)CC1", "Casein kinase II subunit alpha' (Homo sapiens) (UniProt P19784)", "%", "=", 98],
  ["O[C@H]1CC[C@H](Nc2nccc(-n3ncc4ccccc43)n2)CC1", "Casein kinase II subunit alpha' (Homo sapiens) (UniProt P19784)", "%", "=", 86],
  ["O[C@H]1CC[C@H](Nc2nccc(-n3nnc4ccccc43)n2)CC1", "Casein kinase II subunit alpha' (Homo sapiens) (UniProt P19784)", "%", "<", 50],
  ["O[C@H]1CC[C@H](Nc2nccc(-n3ccc4ccccc43)n2)CC1", "Casein kinase II subunit alpha' (Homo sapiens) (UniProt P19784)", "%", "<", 50]
]}

---

- assay: Clearance in human liver microsomes
- Assay type: ADME, Microsome
- condition: read-out: CLH
endpoint_label: log10 of microsomal CLint (log10 of the value in µL/min/mg)

{"columns": ["mol", "log10 of microsomal CLint"],
 "data": [
  ["CS(=O)(=O)CCCOc1cccc2c1ccn2-c1ccnc(N[C@H]2CC[C@H](C(=O)N3CC[C@@H](O)C3)CC2)n1", 1.28],
  ["CCN(CC)C(=O)[C@H]1CC[C@H](Nc2nccc(-n3ccc4c(OCCCS(C)(=O)=O)cccc43)n2)CC1", 2.78],
  ["CS(=O)(=O)CCCOc1cccc2c1ccn2-c1ccnc(N[C@H]2CC[C@H](C(=O)N3CCC(F)(F)CC3)CC2)n1", 2.45],
  ["COC1CCN(C(=O)[C@H]2CC[C@H](Nc3nccc(-n4ccc5c(OCCCS(C)(=O)=O)cccc54)n3)CC2)CC1", 2.15],
  ["CS(=O)(=O)CCCOc1cccc2c1ccn2-c1ccnc(N[C@H]2CC[C@H](C(=O)N3CC[C@@H](F)C3)CC2)n1", 2.24],
  ["CS(=O)(=O)CCCOc1cccc2c1ccn2-c1ccnc(N[C@H]2CC[C@H](C(=O)N3CCC(O)CC3)CC2)n1", 1.48]
]}

---

- assay_target: Serine/threonine-protein kinase PAK 3 (Homo sapiens) (UniProt O75914)
- assay: Competitive binding affinity to PAK3 (unknown origin) at 10 uM in presence of ATP relative to control

{"columns": ["mol", "comparison_operator", "inhibition [%]"],
 "data": [
  ["N[C@H]1CC[C@H](Nc2nccc(-n3nnc4ccccc43)n2)CC1", "=", 90],
  ["O=C([C@H]1CC[C@H](Nc2nccc(-n3nnc4ccccc43)n2)CC1)N1CCOCC1", "<", 50],
  ["O[C@H]1CC[C@H](Nc2nccc(-n3ncc4ccccc43)n2)CC1", "=", 75],
  ["O[C@H]1CC[C@H](Nc2nccc(-n3nnc4ccccc43)n2)CC1", "=", 76],
  ["O[C@H]1CC[C@H](Nc2nccc(-n3ccc4ccccc43)n2)CC1", "<", 50],
  ["O[C@H]1CC[C@H](Nc2nccc(-c3n[nH]c4ccccc34)n2)CC1", "=", 99]
]}

---

Let's look at some molecules and their measured inhibition.
- assay_target: Mitogen-activated protein kinase 4 (Homo sapiens, UniProt P31152)
- assay: Competitive binding affinity to ERK4 (unknown origin) at 10 uM in presence of ATP relative to control
endpoint_label: inhibition (%)

{"columns": ["mol", "endpoint_label", "comparison_operator", "experimental_value"],
 "data": [
  ["O[C@H]1CC[C@H](Nc2nccc(-n3ccc4ccccc43)n2)CC1", "inhibition", "=", 63],
  ["CS(=O)(=O)CCCOc1cccc2c1ccn2-c1ccnc(N[C@H]2CC[C@H](C(=O)N3CCC(O)CC3)CC2)n1", "inhibition", ">", 85],
  ["O[C@H]1CC[C@H](Nc2nccc(-n3nnc4ccccc43)n2)CC1", "inhibition", "=", 100],
  ["O[C@H]1CC[C@H](Nc2nccc(-n3ncc4ccccc43)n2)CC1", "inhibition", "=", 99]
]}

---

Let's look at some compounds and their measured inhibition.
- assay_target: UniProt:Q9UK32
- assay: Competitive binding affinity to RPS6KA6 kinase domain 1 (unknown origin) at 10 uM in presence of ATP relative to control

{"columns": ["mol", "inhibition"],
 "data": [
  ["O[C@H]1CC[C@H](Nc2nccc(-c3n[nH]c4ccccc34)n2)CC1", "79%"],
  ["O[C@H]1CC[C@H](Nc2nccc(-n3ncc4ccccc43)n2)CC1", "< 50%"],
  ["O[C@H]1CC[C@H](Nc2nccc(-n3ccc4ccccc43)n2)CC1", "< 50%"],
  ["O[C@H]1CC[C@H](Nc2nccc(-n3nnc4ccccc43)n2)CC1", "< 50%"]
]}

---

Let's look at some compounds and their measured inhibition.
- assay_target: Ephrin type-A receptor 7 (Homo sapiens)
- assay: Competitive binding affinity to EPHA7 (unknown origin) at 10 uM in presence of ATP relative to control

{"columns": ["mol", "assay_target", "inhibition"],
 "data": [
  ["O=C([C@H]1CC[C@H](Nc2nccc(-n3nnc4ccccc43)n2)CC1)N1CCOCC1", "Ephrin type-A receptor 7 (Homo sapiens)", "< 50%"],
  ["O[C@H]1CC[C@H](Nc2nccc(-c3n[nH]c4ccccc34)n2)CC1", "Ephrin type-A receptor 7 (Homo sapiens)", "95%"],
  ["O[C@H]1CC[C@H](Nc2nccc(-n3nnc4ccccc43)n2)CC1", "Ephrin type-A receptor 7 (Homo sapiens)", "< 50%"],
  ["O[C@H]1CC[C@H](Nc2nccc(-n3ccc4ccccc43)n2)CC1", "Ephrin type-A receptor 7 (Homo sapiens)", "< 50%"],
  ["O[C@H]1CC[C@H](Nc2nccc(-n3ncc4ccccc43)n2)CC1", "Ephrin type-A receptor 7 (Homo sapiens)", "< 50%"],
  ["N[C@H]1CC[C@H](Nc2nccc(-n3nnc4ccccc43)n2)CC1", "Ephrin type-A receptor 7 (Homo sapiens)", "< 50%"]
]}

Numbers sourced from ChEMBL document CHEMBL2424622.
